B1: Azoarcus group I ribozyme (parent)
chain: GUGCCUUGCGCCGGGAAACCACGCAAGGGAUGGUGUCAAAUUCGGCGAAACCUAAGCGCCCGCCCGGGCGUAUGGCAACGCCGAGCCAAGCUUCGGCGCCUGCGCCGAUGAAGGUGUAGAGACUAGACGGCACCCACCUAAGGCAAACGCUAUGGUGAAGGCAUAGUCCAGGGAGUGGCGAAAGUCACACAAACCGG

- Variants of: B1
- procedure-text: reverse-splicing fitness (ratio to wild type); higher = more active; in vitro selection; Mg2+ level not given
Reported reverse-splicing fitness values for a set of variants
experimental-endpoint: reverse-splicing fitness

                                 mutant_name  reported_value
 0              C82G A111U A120U C150A U176A         0.00758
 1                                C82A A120C           0.144
 2              C82U A111C A120C A145G C169G         0.00841
 3             A111C A120U A145U C150U C169G          0.0348
 4                   A120G A145C C150G U176G          0.0061
 5                   A111G A120U A145G U176A           0.344
 6        C82U A120C A145G C150A C169A U176G         0.00547
 7              C82U A111C A145G C169U U176C          0.0148
 8        C82U A111C A145U C150A C169U U176A          0.0193
 9        C82U A111U A120U A145C C150A U176C         0.00387
10                   A111G A120G C169A U176A          0.0455
11       A111C A120C A145U C150A C169U U176C          0.0144
12        C82A A111G A120U A145G C169G U176A         0.00375
13        C82A A111G A120U C150A C169U U176C         0.00484
14                   A111U A145U C150U U176A           0.632
15             A111U A120G C150A C169G U176A          0.0251
16                    C82A A111G A145G U176C           0.245
17                         A111G A145U C169G            0.13
18       A111C A120G A145C C150A C169A U176A          0.0112
19                    C82U A120U A145G U176A          0.0429
20  C82U A111U A120C A145U C150A C169G U176C          0.0124
21        C82U A111C A120C C150G C169G U176G         0.00547
22        C82U A111G A145G C150G C169U U176A          0.0101
23                   A120C A145G C150A C169G          0.0107
24  C82G A111U A120G A145C C150G C169A U176C          0.0077
25             A120U A145U C150G C169G U176C         0.00304
26                   A111C A145U C150A C169A          0.0106
27              C82G A111G A145G C150A U176C           0.051
28             A111G A120G A145C C150A U176A          0.0131
29             A111C A120U A145G C150U C169G          0.0471
30                          C82U A120G C150U          0.0161
31                   A111U A120U C150G C169A         0.00749
32                    C82U A111U A120G C150G         0.00696
33              C82U A120G A145U C169G U176A          0.0111
34              C82G A120G A145G C150A U176G         0.00757
35  C82G A111U A120U A145C C150G C169G U176A         0.00357
36             A111C A145U C150U C169G U176A          0.0147
37             A111U A120G A145U C169A U176C          0.0247
38  C82U A111G A120U A145G C150U C169G U176A         0.00913
39              C82A A111U A120G C169A U176A          0.0188
40  C82U A111C A120C A145U C150G C169G U176C          0.0066
41              C82U A120G A145C C150G C169U         0.00822
42                         A111C A145C C150U           0.554
43                    C82G A111U C150G C169U          0.0102
44        C82U A111C A120C A145U C169G U176G         0.00515
45        C82G A111G A120C A145C C169G U176A          0.0254
